# System: JAK2 dependent human megakaryoblastic leukemia cell line SET-2
# assay-text: Cell proliferation assay (CellTiter-Glo, 72 hours)
# Format: cell-based
# assay-setup: Homo sapiens, SET-2 cells
property-measured: log10 of IC50 (log10 of the value in nM)
Please be aware that the numbers have been log10-transformed from IC50 in nM.

Hello, I am looking for reported log10 of IC50 with JAK2 dependent human megakaryoblastic leukemia cell line SET-2 for Cc1ccc(Cl)cc1-c1[nH]c(-c2nc(N)ncc2C#Cc2ccc(N3CCC(N4CCCC4)CC3)cc2)cc1C(N)=O . Could you help?
2.46

Missing value: log10 of IC50, JAK2 dependent human megakaryoblastic leukemia cell line SET-2, entry Cc1ccc(Cl)cc1-c1[nH]c(-c2nc(N)ncc2C#Cc2cccc(NC3CCN(C)CC3)c2)cc1C(N)=O . Fill in?
2.70

Return log10 of IC50 measured with JAK2 dependent human megakaryoblastic leukemia cell line SET-2 given this molecule: Cc1ccc(Cl)cc1-c1[nH]c(-c2ccnc(N)n2)c(C#Cc2ccc(N3CCC(N4CCCC4)CC3)cc2)c1C(N)=O
3.21

Tell me reported log10 of IC50 for CCc1ccc(Cl)cc1-c1[nH]c(-c2ccnc(N)n2)c(C#Cc2cccc(OC3CCN(C)CC3)c2)c1C(N)=O , tested with JAK2 dependent human megakaryoblastic leukemia cell line SET-2.
2.38

Query for JAK2 dependent human megakaryoblastic leukemia cell line SET-2: what log10 of IC50 does the record show for Cc1ccc(Cl)cc1-c1[nH]c(-c2nc(N)ncc2C#Cc2ccc(CN3CCN(C)CC3)cc2)cc1C(N)=O ?
1.90

Could you share what log10 of IC50 was measured for Cc1ccc(Cl)cc1-c1[nH]c(-c2nc(N)ncc2C#Cc2cccc(CN3CCN(C)CC3)c2)cc1C(N)=O , tested on JAK2 dependent human megakaryoblastic leukemia cell line SET-2?
2.52

What is its log10 of IC50 for JAK2 dependent human megakaryoblastic leukemia cell line SET-2? Entry: Cc1ccc(Cl)cc1-c1[nH]c(-c2ccnc(N)n2)c(C#Cc2cccc(OC3CCN(C)CC3)c2)c1C(N)=O
2.41

# query: log10 of IC50 | item Cc1ccc(Cl)cc1-c1[nH]c(-c2ccnc(N)n2)c(C#Cc2ccccc2)c1C(N)=O | system: JAK2 dependent human megakaryoblastic leukemia cell line SET-2
3.16

Field: log10 of IC50 (JAK2 dependent human megakaryoblastic leukemia cell line SET-2). Entry: CCc1ccc(Cl)cc1-c1[nH]c(-c2ccnc(N)n2)c(C#Cc2ccccc2NCCN(C)C)c1C(N)=O
2.30

Recall the recorded log10 of IC50 for COc1cc(N2CCN(C)CC2)ccc1C#Cc1cnc(N)nc1-c1cc(C(N)=O)c(-c2cc(Cl)ccc2C)[nH]1 with JAK2 dependent human megakaryoblastic leukemia cell line SET-2 and state it.
2.46

Report log10 of IC50 for Cc1ccc(Cl)cc1-c1[nH]c(-c2nc(N)ncc2C#Cc2ccccc2N)cc1C(N)=O tested on JAK2 dependent human megakaryoblastic leukemia cell line SET-2.
2.38

Value wanted: log10 of IC50 (JAK2 dependent human megakaryoblastic leukemia cell line SET-2) of entry Cc1ccc(Cl)cc1-c1[nH]c(-c2nc(N)ncc2C#CC(C)(C)O)cc1C(N)=O
2.89

For the record Cc1ccc(Cl)cc1-c1[nH]c(-c2nc(N)ncc2C#Cc2cccc(O)c2)cc1C(N)=O , what value of log10 of IC50 is listed for JAK2 dependent human megakaryoblastic leukemia cell line SET-2?
2.72

log10 of IC50 of Cc1ccc(Cl)cc1-c1[nH]c(-c2nc(N)ncc2C#CCN(C)C)cc1C(N)=O on JAK2 dependent human megakaryoblastic leukemia cell line SET-2?
2.66

What reported log10 of IC50 corresponds to Cc1ccc(Cl)cc1-c1[nH]c(-c2ccnc(N)n2)c(C#Cc2cccc(N3CCN(C)CC3)c2)c1C(N)=O on JAK2 dependent human megakaryoblastic leukemia cell line SET-2?
2.48

Measured values drawn from patent US8912200B2 for this set.
